- Test system: PC-3 prostate
- assay_remarks: NCI tumour cell line growth inhibition, 48 h; in the data active = GI50 below about 0.43 µM; inactive = the rest
Classes to choose from: T for active, F for inactive

-- ask Test call for this molecule, please: COC(=O)c1c2c(c[n+]([O-])c1C)C(=O)C(NCc1ccccc1)=CC2=O
-- reply T

-- ask Test call for this molecule, please: Clc1cccc(Cn2cc(Cc3cn(Cc4cccc(Cl)c4)c4ccccc34)c3ccccc32)c1
-- reply F

-- ask Test call for this molecule, please: COc1cc2c3c(n(CCCN=[N+]=[N-])c(=O)c2cc1OC)-c1ccc(N)cc1C3=O
-- reply T

-- ask Test call for this molecule, please: O=C(/C=C\c1cccc([N+](=O)[O-])c1)c1ccccc1
-- reply F

-- ask Test call for this molecule, please: C=C1C(=O)O[C@H]2[C@H]1CC/C(COC(=O)NCc1c[nH]c3ccc(OC)cc13)=C\CC[C@@]1(C)O[C@@H]21
-- reply F

-- ask Test call for this molecule, please: Nc1ccccc1C#Cc1ccccc1C#Cc1ccccc1N
-- reply F

-- ask Test call for this molecule, please: O=C(c1ccc(F)c(F)c1Nc1ccc(I)cc1F)N1CC(O)([C@H]2CCCCN2)C1
-- reply F

-- ask Test call for this molecule, please: O=[N+]([O-])c1ccc(Oc2cccnc2)c([N+](=O)[O-])c1
-- reply F

-- ask Test call for this molecule, please: NC(=O)c1cccc(N)c1
-- reply F

-- ask Test call for this molecule, please: C[CH2][Sn]1([CH2]C)[O]C2C(O)OC(CO)C(O)C2[O]1 (configuration not stated)
-- reply F

-- ask Test call for this molecule, please: COc1ccc(S(=O)(=O)Nc2cc(/C=C\c3cc(OC)c(OC)c(OC)c3)cc(OC)c2OC)cc1OC
-- reply T

-- ask Test call for this molecule, please: NCC(=O)Nc1ccc(-n2nc(C(F)(F)F)cc2-c2ccc3c(ccc4ccccc43)c2)cc1
-- reply F

-- ask Test call for this molecule, please: COc1ccc(C2=C(Br)C(=O)OC2)cc1Cl
-- reply F

-- ask Test call for this molecule, please: COc1cccc(C2=NN(C(C)=O)C(c3cc(OC)c(OC)c(OC)c3)C2)c1 (configuration not stated)
-- reply F

-- ask Test call for this molecule, please: Cc1nc(NC(=O)COc2cccc(/C=C3\COc4ccccc4C3=O)c2)sc1C
-- reply F

-- ask Test call for this molecule, please: Cn1c(=O)c(Sc2ccccc2F)cc2cnc(NC3CCOCC3)nc21
-- reply F

-- ask Test call for this molecule, please: CC(C)[C@@H]1NC(=O)[C@]2(C)CSC(=N2)c2csc(n2)CNC(=O)C[C@@H](/C=C/CCS)OC1=O
-- reply T
